procedure.details: chemical genetic growth profiling, strain panel (AID 1159580);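 note: tested at 20 µM; growth read once vehicle control cultures reached saturation at 30 °C; 1 = growth at the plate median or of vehicle wells; lower values mean less growth of the strain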
applied.conditions: S. cerevisiae deletion strains, growth OD, locus YMR231W, strain pep5, active compounds read low
The campaign covered roughly 5,500 compounds. About 2,000 (36%) were called active. Not shown: some 18% with an inconclusive outcome. The list shows a part of the results.
assay.metric: normalized growth
Note: the reply should be a number with no unit written.

Input Cc1cccc(C)c1NC(=O)C1CCCCN1C (configuration not stated) . Output normalized growth: 0.985

Input COc1ccc(CCC(=O)c2c(O)cc(O[C@@H]3O[C@H](CO)C(O)[C@H](O)C3O[C@@H]3O[C@@H](C)[C@H](O)[C@@H](O)[C@H]3O)cc2O)cc1O (some centres not stated) . Output normalized growth: 0.995

Input Clc1ccc(CSC(Cn2ccnc2)c2ccc(Cl)cc2Cl)cc1 (configuration not stated) . Output normalized growth: 0.146

---

procedure.details: chemical genetic growth profiling, strain panel (AID 1159580);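 note: tested at 20 µM; growth read once vehicle control cultures reached saturation at 30 °C; 1 = growth at the plate median or of vehicle wells; lower values mean less growth of the strain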
applied.conditions: S. cerevisiae deletion strains, growth OD, locus YJL095W, strain BCK1 (second series), active compounds read low
About 2,000 (36%) of roughly 5,500 compounds were called active. Inconclusive results (about 18%) are left out. The list shows a part of the results.
Listed next: entries and their corresponding normalized growth.
Note: the reply should be a number with no unit written.

molecule | assay.metric | assay.value
COc1ccc2oc3ccccc3c(=O)c2c1 | normalized growth | 0.65

Input COc1ccc2nc(S(=O)Cc3ncc(C)c(OC)c3C)[nH]c2c1 (stereo unspecified) . Output normalized growth: 1.02

Input COc1ccnc(CS(=O)c2nc3ccc(OC(F)F)cc3[nH]2)c1OC (stereo unspecified) . Output normalized growth: 1.02

Input "COc1c(C)c2c(c(O)c1C/C=C(\C)CCC(=O)O)C(=O)OC2" . Output normalized growth: 0.714

Input NC(=O)CS(=O)C(c1ccccc1)c1ccccc1 (stereo unspecified) . Output normalized growth: 1.02

Input "CN(C)C(=O)Oc1ccc[n+](C)c1" . Output normalized growth: 1.01

Input "Nc1nc(F)nc2c1ncn2[C@@H]1O[C@H](COP(=O)(O)O)[C@@H](O)[C@@H]1O" . Output normalized growth: 0.994

---

procedure.details: chemical genetic growth profiling, strain panel (AID 1159580);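 note: tested at 20 µM; growth read once vehicle control cultures reached saturation at 30 °C; 1 = growth at the plate median or of vehicle wells; lower values mean less growth of the strain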
applied.conditions: S. cerevisiae deletion strains, growth OD, locus YHR079C, strain IRE1 (second series)
Out of some 5,500 compounds screened, about 2,000 (36%) were called active. Inconclusive results (about 18%) are left out. No stated cut-off is given here; in the data, active means normalized growth mostly below about 0.91 (no sharp cut-off); inconclusive means no clear call, values can overlap the other calls; inactive means mostly above about 0.92. The list shows a part of the results.
Can you answer with just one of these options? class 1 = active, class 0 = inactive

Here are 5 molecules together with their reported answers.
molecule | assigned.category
NCCCCNCCCN | class 0
COc1ccc2oc3ccccc3c(=O)c2c1 | class 1
COc1ccc2oc(-c3ccccc3)c(OC)c(=O)c2c1 | class 1
CCC(C)C(=O)c1c(O)c(C)c2oc3c(C)c(O)c(C(=O)C(C)CC)c(O)c3c2c1O (stereo not given) | class 0
Oc1c(Cl)cc(Cl)c(Cl)c1Cc1c(O)c(Cl)cc(Cl)c1Cl | class 1

Assay result, entry CC(=O)O[C@H]1C[C@@H](OC(C)=O)C(C)(C)C2C[C@@H](OC(C)=O)[C@]3(C)C(CC[C@@]4(C)[C@H](c5ccoc5)OC(=O)[C@H]5O[C@]543)[C@]21C (stereo not given in full) — outcome?
class 0

Assay result, entry CC(=O)OC1CC(OC(C)=O)C2(C)C(CC(OC(C)=O)C3(C)C2CCC2(C)C(c4ccoc4)OC(=O)C4OC423)C1(C)C (stereo not given) — outcome?
class 0

Assay result, entry "NC(N)=NCCN1CCCCCCC1" — outcome?
class 0

Assay result, entry O=C(O)CCC1NCC2CC1CN1CCCCC21 (stereo not given) — outcome?
class 0

Assay result, entry CC(=O)O[C@H]1CC[C@@]2(C)C(C[C@@H](OC(C)=O)[C@]3(C)C2CC[C@@]2(C)[C@H](c4ccoc4)OC(=O)[C@H]4O[C@]423)C1(C)C (stereo not given in full) — outcome?
class 0
